Observed pKi for Adenosine receptor A1 (Rattus norvegicus), reported per entry below.
Numbers only, as −log10 of the molar value.

Molecule	Target	Reported result
C[C@@]1(n2cnc3c(NC4CCCC4)ncnc32)O[C@H](CO)[C@@H](O)[C@H]1O	Adenosine receptor A1 (Rattus norvegicus)	7.00
C[C@@H](Cc1ccccc1)Nc1ncnc2c1ncn2C1O[C@H](CO)[C@@H](O)[C@@]1(C)O (stereo not given in full)	Adenosine receptor A1 (Rattus norvegicus)	7.30

Return reported pKi values for all items listed beneath this line.
1. C[C@@]1(n2cnc3c(N)ncnc32)O[C@H](CO)[C@@H](O)[C@H]1O
2. C[C@@]1(O)[C@H](O)[C@@H](CO)O[C@H]1n1cnc2c(N)ncnc21
3. C[C@@]1(O)[C@H](O)[C@@H](CO)O[C@H]1n1cnc2c(NC3CCCC3)ncnc21

Result:
[5.11, 6.13, 8.02]
